Target: Fc-MAG(d1-3) (Mus musculus)
Sequence (P20917 20-325 limits assumed): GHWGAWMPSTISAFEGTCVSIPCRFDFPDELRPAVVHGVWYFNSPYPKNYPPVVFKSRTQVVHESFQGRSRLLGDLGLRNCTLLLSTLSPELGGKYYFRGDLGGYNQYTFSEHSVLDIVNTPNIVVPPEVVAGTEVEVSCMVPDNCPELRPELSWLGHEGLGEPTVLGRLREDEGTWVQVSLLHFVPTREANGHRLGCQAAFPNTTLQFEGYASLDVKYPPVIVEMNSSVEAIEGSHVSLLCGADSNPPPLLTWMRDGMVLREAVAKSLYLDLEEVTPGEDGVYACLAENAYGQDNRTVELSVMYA
Test: surface plasmon resonance (BIACORE 3000), Fc-MAG(d1-3) immobilized by protein A
Settings: SPR, Fc-MAG(d1-3) immobilized by protein A, 25° C., 1:1 binding model
pKd: −log10 of the molar value.
measured_endpoint: pKd

[
  {
    "compound": "CC(=O)NC1C(O)CC(OCc2cn(CCCc3c[nH]c4ccc([N+](=O)[O-])cc34)nn2)(C(=O)O)OC1C(O)C(O)CNC(=O)c1ccccc1 (stereo not shown) [compound 27]",
    "reading": 6.72
  }
]
